assay: Induction of ROS generation in water/cremophor/DMF solution by AUR-based fluorescence assay; format: physicochemical; settings: buffer
PROPERTY LABEL: Activity

Consider the following illustrative entries.
1) CC[C@H]1c2cc3[nH]c4c(c3C)C(=O)[C@H](C(=O)OC)c4c3nc(cc4[nH]c(cc(n2)[C@@H]1C)c(C(C)=O)c4C)[C@@H](C)[C@@H]3CCC(=O)OC	Active
2) CC[C@H]1c2cc3[nH]c(c(CC(=O)OC)c4nc(cc5[nH]c(cc(n2)[C@@H]1C)c(C(C)=O)c5C)[C@@H](C)[C@@H]4CCC(=O)NCCS(=O)(=O)O)c(C(=O)NCCS(=O)(=O)O)c3C	Active
3) CC[C@H]1c2cc3[nH]c(c(CC(=O)OC)c4nc(cc5[nH]c(cc(n2)[C@@H]1C)c(C(C)=O)c5C)[C@@H](C)[C@@H]4CCC(=O)OCC[N+](C)(C)C)c(C(=O)NCCS(=O)(=O)O)c3C	Active
4) CC[C@H]1c2cc3[nH]c(c(CC(=O)OC)c4nc(cc5[nH]c(cc(n2)[C@@H]1C)c(C(C)=O)c5C)[C@@H](C)[C@@H]4CCC(=O)O)c(C(=O)NCCS(=O)(=O)O)c3C	Active
5) CC[C@H]1c2cc3[nH]c(c(CC(=O)OC)c4nc(cc5[nH]c(cc(n2)[C@@H]1C)c(C(C)=O)c5C)[C@@H](C)[C@@H]4CCC(=O)OC)c(C(=O)NCCS(=O)(=O)O)c3C	Active

So what does the record say about Activity for CC[C@H]1c2cc3[nH]c4c(c3C)C(=O)[C@H](C(=O)OC)c4c3nc(cc4[nH]c(cc(n2)[C@@H]1C)c(C(C)=O)c4C)[C@@H](C)[C@@H]3CCC(=O)OCC[N+](C)(C)C ? Active

So what does the record say about Activity for CC[C@H]1c2cc3[nH]c4c(c3C)C(=O)[C@H](C(=O)OC)c4c3nc(cc4[nH]c(cc(n2)[C@@H]1C)c(C(C)=O)c4C)[C@@H](C)[C@@H]3CCC(=O)NCCS(=O)(=O)O ? Active

So what does the record say about Activity for CC[C@H]1c2cc3[nH]c4c(c3C)C(=O)[C@H](C(=O)OC)c4c3nc(cc4[nH]c(cc(n2)[C@@H]1C)c(C(C)=O)c4C)[C@@H](C)[C@@H]3CCC(=O)O ? Active

---

experiment: Induction of ROS generation in MeOH/PBS solution by SOSG-based fluorescence assay; assay type: physicochemical; details: buffer
PROPERTY LABEL: Activity

1) CC[C@H]1c2cc3[nH]c4c(c3C)C(=O)[C@H](C(=O)OC)c4c3nc(cc4[nH]c(cc(n2)[C@@H]1C)c(C(C)=O)c4C)[C@@H](C)[C@@H]3CCC(=O)O	Active
2) CC[C@H]1c2cc3[nH]c(c(CC(=O)OC)c4nc(cc5[nH]c(cc(n2)[C@@H]1C)c(C(C)=O)c5C)[C@@H](C)[C@@H]4CCC(=O)NCCS(=O)(=O)O)c(C(=O)NCCS(=O)(=O)O)c3C	Active
3) CC[C@H]1c2cc3[nH]c4c(c3C)C(=O)[C@H](C(=O)OC)c4c3nc(cc4[nH]c(cc(n2)[C@@H]1C)c(C(C)=O)c4C)[C@@H](C)[C@@H]3CCC(=O)OCC[N+](C)(C)C	Active

The origin of these recorded values is ChEMBL document CHEMBL3108669.
